meta.source: PubChem BioAssay (NCI)

# System: A549/ATCC NSCLC
# methodDescription: NCI-60 one-dose screen, 48 h (100 = growth as untreated, 0 = no growth, -100 = all killed)
# conditions: 10 µM unless noted
Compounds without any hit were thinned out: in the full panel of roughly 83,000, 20% have a hit.
readoutLabel: growth (%)
Enter your answer as a number in %; do not include the unit.

// below: answered compounds
CCOC(=O)C#Cc1c(C(=O)OCC)nnn1Cc1ccc(C(F)(F)F)cc1 ... 95.8
Clc1c(Cl)[n+](Cc2ccc3ccccc3c2)cn1Cc1ccc2ccccc2c1 ... 52.5
O=C(c1c[nH]c2ccccc12)c1n[nH]c(=S)n1-c1cccc(Br)c1 ... 86.5
C[C@H](CCCC(=O)NCC#CCN1CCN(C)CC1)[C@H]1CC[C@H]2[C@@H]3CC[C@@H]4CC(=O)CC[C@]4(C)[C@H]3CC[C@]12C ... 95.7
COC(=O)c1c2c(c(C)[n+]([O-])c1C)C(=O)C(NCc1cccc(Cl)c1)=CC2=O ... 6.34

In: Which growth is listed for "CC1(C)CC[C@]2(CO)CC[C@]3(C)[C@H](CC[C@@H]4[C@@]5(C)CCCNC(C)(C)[C@@H]5CC[C@]43C)[C@H]2[C@H]1O" ?
Out: 73

In: Fill blank: measured growth of the compound "Oc1ccc(/C=C/c2ccc(O)cc2)cc1" is ____.
Out: 60.7

In: growth for "N#C/C(=C\c1ccc(-c2cccc(C(F)(F)F)c2)o1)c1ccccc1" ?
Out: 94.3

In: Quick one: growth for "CN(C)c1ccc(-c2ccc3c(c2)c(-c2ccccc2)nc(=O)n3C)cn1" ?
Out: 45.8

###

// values below are reported growth
# System: UO-31 renal
# methodDescription: NCI-60 one-dose screen, 48 h (100 = growth as untreated, 0 = no growth, -100 = all killed)
# conditions: 10 µM unless noted
This is part of a sample that, as a whole, favours compounds with a hit. Of some 83,000 tested, about 20% had one in any assay.
Write down the numeric answer in % and omit the unit.

Sample records with growth:
C=CC(=O)Nc1ccc(Nc2nccc(-c3ccc(N4CCCC4)c(C#N)c3)n2)cc1 ... 21
C/C=C(\C)C(=O)N[C@H]1C(O)C[C@]2(C)C3CC[C@@]4(C)C(CC[C@@H]4C(C)N(C)C)C3CCC2C1O (stereo partly drawn) ... -0.798
O=C1/C(=C/c2ccccc2F)CN(C(=O)C(Cl)Cl)C/C1=C\c1ccccc1F ... -92
CCOC(=O)C(=Cc1ccc(-c2ccccc2)cc1)C(=O)OCC ... 55.4
CN(C)c1ccc(-c2nc(-c3ccccc3)c(-c3ccccc3)[nH]2)cc1 ... 84.8

Consider now this further molecule.
In: Please provide the recorded growth for "O=C1/C(=C/c2ccc(F)cc2)CN(C(=O)C(Cl)Cl)C/C1=C\c1ccc(F)cc1" , tested on UO-31 renal.
Out: -83.4

###

# Test system: EKVX NSCLC
# methodDescription: NCI-60 one-dose screen, 48 h (100 = growth as untreated, 0 = no growth, -100 = all killed)
# conditions: 10 µM unless noted
This is part of a sample that, as a whole, favours compounds with a hit. Of some 83,000 tested, about 20% had one in any assay.
We use 90% as the dividing line for growth: on or above the line is 1, below is -1.

Worked cases, answers included:
NC1(CO)COC(c2ccccc2)OC1 (stereo not given) ... 1
COc1ccc(CNc2c3ccccc3nc3ccccc23)c(OC)c1 ... -1
N#Cc1ccc(O)c(C2=NCC(Cc3ccccc3)O2)c1 (stereo not given) ... -1
O=C1c2ccccc2C(=O)C1c1ccc(Br)cc1 ... 1
CC1C(/C=N/NC(N)=S)C(C#N)(C#N)C1(C#N)C#N (stereo not given) ... 1

In: Reported growth reaches at least 90% for COc1ccc(/C=C/C(c2cc(OC)c(OC)c(OC)c2)n2ccnc2)cc1O (stereo not given) ?
Out: -1
